biological target: human TRPM8 receptor (Homo sapiens, UniProt Q7Z2W7); construct: expressed in transfected cells; host or cells: HEK293, stably transfected, tetracycline-inducible expression; experiment: Assay on TRPM8 modulators: Ca2+-sensitive dye (Fluo-4) fluorescence in HEK293-TRPM8 test cells; format: cell-based; conditions: TRPM8 EC50, Table 5; HEK293-TRPM8 cells
Sequence (Q7Z2W7 whole entry): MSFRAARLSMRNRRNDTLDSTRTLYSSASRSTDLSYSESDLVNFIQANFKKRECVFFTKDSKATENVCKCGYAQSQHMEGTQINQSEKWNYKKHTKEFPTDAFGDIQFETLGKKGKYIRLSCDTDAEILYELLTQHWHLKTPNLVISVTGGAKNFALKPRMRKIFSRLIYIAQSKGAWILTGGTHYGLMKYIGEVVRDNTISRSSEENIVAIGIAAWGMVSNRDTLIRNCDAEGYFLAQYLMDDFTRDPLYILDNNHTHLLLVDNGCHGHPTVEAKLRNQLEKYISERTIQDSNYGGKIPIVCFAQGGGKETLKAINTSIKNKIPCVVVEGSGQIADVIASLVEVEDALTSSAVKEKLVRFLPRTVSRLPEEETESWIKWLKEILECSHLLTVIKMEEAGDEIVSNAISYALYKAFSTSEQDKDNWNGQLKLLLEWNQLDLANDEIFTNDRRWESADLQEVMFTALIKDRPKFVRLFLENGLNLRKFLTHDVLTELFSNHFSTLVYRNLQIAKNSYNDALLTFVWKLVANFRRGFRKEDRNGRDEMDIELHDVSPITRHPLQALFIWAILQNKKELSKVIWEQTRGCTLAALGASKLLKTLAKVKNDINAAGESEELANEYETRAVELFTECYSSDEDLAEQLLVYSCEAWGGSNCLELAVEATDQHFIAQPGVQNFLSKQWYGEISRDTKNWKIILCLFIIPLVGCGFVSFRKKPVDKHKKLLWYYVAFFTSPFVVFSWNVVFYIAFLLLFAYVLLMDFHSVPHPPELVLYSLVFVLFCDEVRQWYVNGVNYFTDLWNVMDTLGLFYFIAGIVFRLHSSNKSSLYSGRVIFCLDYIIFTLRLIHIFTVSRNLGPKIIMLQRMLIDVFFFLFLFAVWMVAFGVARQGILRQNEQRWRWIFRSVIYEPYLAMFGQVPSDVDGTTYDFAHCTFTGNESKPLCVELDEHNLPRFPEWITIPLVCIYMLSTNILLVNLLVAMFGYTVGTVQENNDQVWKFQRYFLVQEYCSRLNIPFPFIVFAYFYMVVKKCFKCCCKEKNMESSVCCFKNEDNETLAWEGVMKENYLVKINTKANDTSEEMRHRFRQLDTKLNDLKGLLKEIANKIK
endpointName: pEC50
pEC50 is defined as minus the log10 of a concentration measured in mol/L.

Any idea what pEC50 was measured for CNC(=O)C(C)Sc1nnc2c3ccccc3c3ccccc3c2n1 (stereo not shown) ? 6.04

---

target: human TRPM8 receptor (Homo sapiens, UniProt Q7Z2W7); construct: expressed in transfected cells; host or cells: HEK293, stably transfected, tetracycline-inducible expression; test: Assay on TRPM8 modulators: Ca2+-sensitive dye (Fluo-4) fluorescence in HEK293-TRPM8 test cells; format: cell-based; set-up: concentration or dose not given beside the values; conditions: HEK293 cells recombinantly expressing human TRPM8
endpointName: relative TRPM8 activation (%)
API: value field is a number in %; no unit string.

Look over these answered cases.
1. c1ccc(-c2nnc(NC3COC3)nc2-c2ccccc2)cc1    3
2. CNC(=O)CSc1ncc(-c2ccccc2)[nH]1    −1
3. Cc1ccc(-c2nnc(SC(C)C(=O)N3CCCC3)nc2-c2ccc(C)cc2)cc1 (stereo not drawn)    11
4. CC(Sc1nnc(-c2ccccc2)c(-c2ccccc2)n1)C(=O)N(C)C1CCCCC1 (stereo not drawn)    11
5. CNC(=O)C(C)Sc1cnccn1 (stereo not drawn)    1

Requested read-out: relative TRPM8 activation. Entry: CCC(=O)CSc1nnc(-c2ccccc2)c(-c2ccccc2)n1 25

Moving on to CNC(=O)CNc1nnc(-c2ccccc2)c(-c2ccccc2)n1 6

Also check Cc1nc(SC(C)C(=O)NC2CC2)[nH]c1C (stereo not drawn) 1

What do you get for CNC(=O)CSc1nc(-c2ccc(OC)cc2)c(-c2ccc(OC)cc2)o1 ? −5

Just for reference, patent US20250163006A1 is where these values come from.
